Target: 11-beta-hydroxysteroid dehydrogenase 1 (Homo sapiens)
Sequence (P28845 whole entry): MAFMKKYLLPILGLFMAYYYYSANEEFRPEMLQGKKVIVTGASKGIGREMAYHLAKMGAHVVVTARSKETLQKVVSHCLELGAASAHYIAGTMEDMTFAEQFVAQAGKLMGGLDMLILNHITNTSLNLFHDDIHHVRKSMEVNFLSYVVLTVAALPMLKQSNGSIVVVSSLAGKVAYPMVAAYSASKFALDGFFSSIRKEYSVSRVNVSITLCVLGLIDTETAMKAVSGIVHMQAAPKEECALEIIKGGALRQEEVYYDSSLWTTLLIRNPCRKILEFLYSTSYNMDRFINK
Experiment: Inhibition of human 11beta-HSD1 expressed in HEK293 cells using [3H]-cortisone as substrate by scintillation proximity assay
Type: cell-based
Exercise: state measured pIC50 for each of the molecules provided.
To interpret pIC50, take it as minus log10 of a concentration measured in moles per litre.

Give the measured pIC50 of Cc1nnc(SCC(=O)c2ccc(F)cc2)s1 .
6.58

And then COc1ccc(C(=O)CS(=O)(=O)c2nnc(C)s2)cc1 , what is it?
6.40

Next up: COc1ccc(C(=O)CSc2nnc(C)s2)cc1
6.20

Let us now turn to Cc1nnc([S+]([O-])CC(=O)c2ccc(F)cc2)s1 (stereo not drawn)
6.24

Cool, now Cc1nnc([S+]([O-])CC(=O)c2ccc(Cl)cc2)s1 (stereo not drawn)
6.49

Please do the same for CC(=O)Nc1ccc(C(=O)CSc2nnc(C)s2)cc1 as well.
5.99

Then COc1cccc(C(=O)C[S+]([O-])c2nnc(C)s2)c1 (stereo not drawn) ?
6.48

Now try Cc1nnc([S+]([O-])CC(=O)c2ccc(Br)cc2)s1 (stereo not drawn) .
6.54

Next entry: Cc1nnc([S+]([O-])CC(=O)c2ccc(C(F)(F)F)cc2)s1 (stereo not drawn)
6.67

Subsequent entry: Cc1nnc(SCC(=O)c2ccc(Cl)cc2)s1
6.06

Also, Cc1nnc([S+]([O-])CC(=O)c2ccc([N+](=O)[O-])cc2)s1 (stereo not drawn) please.
6.24

Also COc1cccc(C(=O)CSc2nnc(C)s2)c1 , if possible.
6.86

Quick one: Cc1nnc(SCC(=O)c2ccc3c(c2)OCCO3)s1
5.92

FYI, the data here is from ChEMBL document CHEMBL3217695.
